- PROCEDURE_SUMMARY: physchem
- CONDITIONS_USED: pH 6.8, aqueous solubility pH 6.8
Give solubility for every item shown.
State just the number; it will be interpreted in µM.

For record `Oc1c(CNc2ccccn2)ccc2cccnc12` the listed solubility is 0.111

Consider COc1ccc(C(Nc2ccccn2)c2ccc3cccnc3c2O)cc1 (stereo not drawn) . Its measured solubility is 0.0053

Cc1ccnc(NC(c2ccc([N+](=O)[O-])cc2)c2ccc3cccnc3c2O)c1 (stereo not drawn) has a reported solubility of 0.0741

Looking up Oc1c(Cl)cc(Cl)c2cccnc12 [Compound 60, 5,7-dichloro-8-hydroxy-quinoline, reference compound] , I found its solubility recorded as 0.5

Entry under test: `Cc1ccc2c(Cl)cc(Cl)c(O)c2n1` . Its solubility was 0.394

Documented solubility of COc1ccc(C(Nc2ccccn2)c2ccc3ccc(C)nc3c2O)cc1 (stereo not drawn) : 0.0338

Quick note, solubility for Oc1c(C(Nc2ccccn2)c2ccccc2)ccc2cccnc12 (stereo not drawn) landed at 0.078

Memo: Cc1ccnc(NC(c2ccc([N+](=O)[O-])cc2)c2ccc3ccc(C)nc3c2O)c1 (stereo not drawn) , reported solubility: 0.0659

###

- PROCEDURE_SUMMARY: physchem
- CONDITIONS_USED: pH 1, aqueous solubility pH 1.0
QUANTITY_NAME: solubility

Looking up Oc1c(C(Nc2ccccn2)c2ccccc2)ccc2cccnc12 (stereo not shown) , I found its solubility recorded as ~1200 µM
